Reported values of log10(IC50) for individual entries
Molecular target: human liver glycogen phosphorylase a (HLGPa) (Homo sapiens)
Construct: creating a full-length cDNA fused at the 5′ end to codons for methionine-glycine-alanine-histidine; 6xHis tag (leader Met-Gly-Ala-His6-Gly-Gly) (N); made in house; host or cells: E. coli (bacterial expression plasmid pTXK1007LTev)
Sequence (P06737 2-847 limits assumed): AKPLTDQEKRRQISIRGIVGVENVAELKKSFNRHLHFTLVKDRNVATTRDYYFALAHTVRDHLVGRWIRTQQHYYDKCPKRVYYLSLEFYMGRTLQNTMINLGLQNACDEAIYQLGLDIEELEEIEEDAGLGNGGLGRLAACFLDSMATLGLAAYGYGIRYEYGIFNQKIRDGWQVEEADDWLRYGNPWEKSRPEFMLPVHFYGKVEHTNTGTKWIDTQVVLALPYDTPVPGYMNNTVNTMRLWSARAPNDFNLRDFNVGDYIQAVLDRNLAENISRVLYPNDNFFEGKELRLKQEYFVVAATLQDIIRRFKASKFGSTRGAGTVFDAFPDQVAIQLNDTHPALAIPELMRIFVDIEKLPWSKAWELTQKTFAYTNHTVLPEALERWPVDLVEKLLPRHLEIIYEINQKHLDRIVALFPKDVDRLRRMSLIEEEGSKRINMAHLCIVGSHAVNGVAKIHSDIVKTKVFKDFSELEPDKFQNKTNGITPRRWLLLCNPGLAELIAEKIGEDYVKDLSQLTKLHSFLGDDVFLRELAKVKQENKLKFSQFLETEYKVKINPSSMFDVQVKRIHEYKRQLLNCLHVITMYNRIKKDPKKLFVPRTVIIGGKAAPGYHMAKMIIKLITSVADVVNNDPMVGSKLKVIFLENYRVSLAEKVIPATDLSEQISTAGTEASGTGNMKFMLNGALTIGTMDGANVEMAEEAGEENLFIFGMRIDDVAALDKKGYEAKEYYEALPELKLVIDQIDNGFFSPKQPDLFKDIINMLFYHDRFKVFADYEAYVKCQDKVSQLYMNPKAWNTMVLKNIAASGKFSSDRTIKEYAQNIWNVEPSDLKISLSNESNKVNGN
Test: Human liver glycogen phosphorylase a enzymatic activity assay (coupled, fluorescent resorufin readout, with and without 10 mM glucose)
Type: biochemical
Details: human liver glycogen phosphorylase a; table does not say whether with or without 10 mM glucose
Transform log10 | Measure IC50 | Unit nM

Ask: For the molecule Cc1cc(C)c(NC(=O)Nc2cc3ccccc3nc2C(=O)NC2(C(=O)O)CCCCCCC2)c(C)c1 , give its reported log10(IC50).
Reply: 0.30

Ask: For the molecule Cc1cc(C)c(NC(=O)Nc2cc3ccccc3cc2C(=O)N[C@H](CC(=O)O)C2CCCCC2)c(C)c1 , give its reported log10(IC50).
Reply: 3.33

Ask: For the molecule CCCC[C@H](NC(=O)c1nc2ccccc2cc1NC(=O)Nc1c(C)cc(C)cc1C)C(=O)O , give its reported log10(IC50).
Reply: 2.20

Ask: For the molecule Cc1cc(C)c(NC(=O)Nc2cc(-c3ccc(F)c(F)c3)ccc2C(=O)N[C@H](C(=O)O)C2CCCCC2)c(C)c1 , give its reported log10(IC50).
Reply: 1.15

Ask: For the molecule Cc1cc(C)c(NC(=O)Nc2cc3ccccc3cc2C(=O)NC2(C(=O)O)CCC(NCc3ccccc3)CC2)c(C)c1 (stereo not shown) [Example 295] , give its reported log10(IC50).
Reply: 3.75

Ask: For the molecule Cc1cccc(C)c1NC(=O)Nc1cc2ccccc2cc1C(=O)N1CCC[C@H]1C(=O)O , give its reported log10(IC50).
Reply: 2.62

Ask: For the molecule COc1ccc(-c2cnc(C(=O)N[C@H](C(=O)O)[C@@H](C)OC(C)(C)C)c(NC(=O)Nc3c(C)cc(C)cc3C)c2)cc1 , give its reported log10(IC50).
Reply: 2.23

###

target: human liver glycogen phosphorylase a (HLGPa) (Homo sapiens); construct: creating a full-length cDNA fused at the 5′ end to codons for methionine-glycine-alanine-histidine; 6xHis tag (leader Met-Gly-Ala-His6-Gly-Gly) (N); made in house; host or cells: E. coli (bacterial expression plasmid pTXK1007LTev); assay: Human liver glycogen phosphorylase a enzymatic activity assay (coupled, fluorescent resorufin readout, with and without 10 mM glucose); assay type: biochemical; details: human liver glycogen phosphorylase a; table does not say whether with or without 10 mM glucose
Reported values of pIC50 for individual entries
// pIC50 here means minus log10 of the molar concentration (mol/L)

Examples with their reported pIC50 follow.
[
  {
    "COMPOUND": "O=C(O)C[C@H](NC(=O)c1ccc(F)cc1NC(=O)Nc1c(Cl)cccc1Cl)C(=O)O",
    "READING": 5.89
  },
  {
    "COMPOUND": "COc1ccc(NC(=O)Nc2cc3ccccc3cc2C(=O)N[C@H](C(=O)O)C2CCCCC2)c(OC)c1",
    "READING": 5.62
  },
  {
    "COMPOUND": "Cc1cc(C)c(NC(=O)Nc2cc3ccccc3cc2C(=O)N[C@H](C(=O)O)[C@H]2CCCC(O)C2)c(C)c1 (stereo partly shown)",
    "READING": 8.22
  }
]

Ask: For the compound O=C(Nc1cc2ccccc2cc1C(=O)NC1(C(=O)O)CCOCC1)Nc1c(Cl)cccc1Cl , give its reported pIC50.
Reply: 5.14

Ask: For the compound Cc1cc(C)c(NC(=O)Nc2cc(-c3ccc(F)c(F)c3)ccc2C(=O)N[C@H](C(=O)O)[C@@H](C)OC(C)(C)C)c(C)c1 , give its reported pIC50.
Reply: 8.30

Ask: For the compound COC(=O)[C@H](CC(N)=O)NC(=O)c1ccc(-c2ccc(OC)cc2)cc1NC(=O)Nc1c(C)cc(C)cc1C , give its reported pIC50.
Reply: 5.04

Ask: For the compound Cc1cc(C)c(NC(=O)Nc2cc3ccccc3cc2C(=O)NC2(C(=O)O)CCC(=NO)CC2)c(C)c1 (stereo not shown) , give its reported pIC50.
Reply: 6.27

###

target: human liver glycogen phosphorylase a (HLGPa) (Homo sapiens, UniProt P06737); construct: creating a full-length cDNA fused at the 5′ end to codons for methionine-glycine-alanine-histidine; 6xHis tag (leader Met-Gly-Ala-His6-Gly-Gly) (N); made in house; host or cells: E. coli (bacterial expression plasmid pTXK1007LTev); experiment: Human liver glycogen phosphorylase a enzymatic activity assay (coupled, fluorescent resorufin readout, with and without 10 mM glucose); assay type: biochemical; details: human liver glycogen phosphorylase a; table does not say whether with or without 10 mM glucose
READOUT_NAME: IC50 (µM)
Give the value in µM but do not write µM after it.

Examples with their reported IC50 follow.
[
  {
    "SMILES_STRING": "COc1ccc(-c2ccc(C(=O)N[C@H](C(=O)O)C(C)(C)C)c(NC(=O)Nc3c(C)cc(C)cc3C)c2)cc1",
    "READING": 0.14
  },
  {
    "SMILES_STRING": "Cc1cc(C)c(NC(=O)Nc2cc(-c3ccc(N)cc3)ccc2C(=O)N[C@H](C(=O)O)C2CCCCC2)c(C)c1",
    "READING": 0.004
  },
  {
    "SMILES_STRING": "COc1ccc(-c2ccc(C(=O)N[C@H](C(=O)O)C(C)(C)C)c(NC(=O)Nc3c(Cl)cc(Cl)cc3Cl)c2)cc1",
    "READING": 0.67
  }
]

Next up:
Ask: For the molecule COc1ccc(-c2ccc(C(=O)N[C@H](C(=O)O)C3CCCCC3)c(NC(=O)Nc3c(Cl)cc(OC(F)(F)F)cc3Cl)c2)cc1 , give its reported IC50.
Reply: 0.009

###

molecular target: human liver glycogen phosphorylase a (HLGPa) (Homo sapiens); construct: creating a full-length cDNA fused at the 5′ end to codons for methionine-glycine-alanine-histidine; 6xHis tag (leader Met-Gly-Ala-His6-Gly-Gly) (N); made in house; host or cells: E. coli (bacterial expression plasmid pTXK1007LTev); assay: Human liver glycogen phosphorylase a enzymatic activity assay (coupled, fluorescent resorufin readout, with and without 10 mM glucose); assay type: biochemical; settings: human liver glycogen phosphorylase a enzymatic activity assay
pIC50: −log10 of the molar value. Counter-ions that a name gives are not always drawn.
Label label 0 if pIC50 falls below 7; label label 1 in every other case.

Ask: Dear colleague, could you confirm whether Cc1cccc(Cl)c1NC(=O)Nc1cc2ccccc2cc1C(=O)N[C@@H](CC1CCCCC1)C(=O)O has pIC50 at or above 7?
Reply: label 0

Ask: Dear colleague, could you confirm whether O=C(Nc1ccc(-c2ccccc2)cc1)Nc1cc2ccccc2cc1C(=O)NC1(C(=O)O)CCCCC1 has pIC50 at or above 7?
Reply: label 0

Ask: Dear colleague, could you confirm whether O=C(Nc1ccccc1Cl)Nc1cc2ccccc2cc1C(=O)N[C@@H](Cc1cccs1)C(=O)O has pIC50 at or above 7?
Reply: label 0

Ask: Dear colleague, could you confirm whether Cc1cccc(Cl)c1NC(=O)Nc1sc2c(c1C(=O)N[C@@H](CC(C)C)C(=O)O)CCCC2 has pIC50 at or above 7?
Reply: label 0

Ask: Dear colleague, could you confirm whether COc1ccc(-c2cc(NC(=O)Nc3c(C)cc(C)cc3C)c(C(=O)NC3(C(=O)O)CCCCCCC3)s2)cc1 has pIC50 at or above 7?
Reply: label 1

Ask: Dear colleague, could you confirm whether Cc1cccc(Cl)c1NC(=O)Nc1sc2ccccc2c1C(=O)N[C@H](C(=O)O)C1CCCCC1 has pIC50 at or above 7?
Reply: label 0

Ask: Dear colleague, could you confirm whether CCCc1cc(C)c(NC(=O)Nc2cc3ccccc3cc2C(=O)N[C@H](C(=O)O)C2CCCCC2)c(C)c1 has pIC50 at or above 7?
Reply: label 1

Ask: Dear colleague, could you confirm whether Cc1cccc(C)c1NC(=O)Nc1cc(-c2ccc(O)cc2)ccc1C(=O)N[C@H](C(=O)O)C1CCCCC1 has pIC50 at or above 7?
Reply: label 1

Ask: Dear colleague, could you confirm whether O=C(O)C[C@H](NC(=O)c1cc2ccccc2cc1NC(=O)Nc1c(F)cccc1F)C(=O)O has pIC50 at or above 7?
Reply: label 0

Ask: Dear colleague, could you confirm whether CC[C@H](C)[C@H](NC(=O)c1cc2ccccc2cc1NC(=O)Nc1ccccc1C)C(=O)O has pIC50 at or above 7?
Reply: label 0

Ask: Dear colleague, could you confirm whether COc1ccc(-c2cc(NC(=O)Nc3c(C)cc(C)cc3C)c(C(=O)NC3(C(=O)O)CCCCC3)s2)cc1 has pIC50 at or above 7?
Reply: label 1

Ask: Dear colleague, could you confirm whether COc1ccccc1-c1ccc(C(=O)N[C@H](C(=O)O)[C@@H](C)OC(C)(C)C)c(NC(=O)Nc2c(C)cc(C)cc2C)c1 has pIC50 at or above 7?
Reply: label 1

Ask: Dear colleague, could you confirm whether Cc1cccc(Cl)c1NC(=O)Nc1cc(Cl)ccc1C(=O)N[C@@H](CC(=O)O)C(=O)O has pIC50 at or above 7?
Reply: label 0

Ask: Dear colleague, could you confirm whether C[C@H](NC(=O)c1cc2ccccc2cc1NC(=O)Nc1ccccc1Cl)C(=O)O has pIC50 at or above 7?
Reply: label 0

Ask: Dear colleague, could you confirm whether COC(=O)[C@@H](NC(=O)c1cc(C(C)C)sc1NC(=O)Nc1c(Cl)cccc1Cl)C1CCCCC1 has pIC50 at or above 7?
Reply: label 0

Ask: Dear colleague, could you confirm whether Cc1cc(C)c(NC(=O)Nc2cc(-c3ccc(F)cc3)ccc2C(=O)N[C@H](C(=O)O)[C@@H](C)OC(C)(C)C)c(C)c1 has pIC50 at or above 7?
Reply: label 1

Ask: Dear colleague, could you confirm whether Cc1cccc(C)c1NC(=O)Nc1cc(F)c(F)cc1C(=O)N[C@@H](Cc1ccccc1)C(=O)O has pIC50 at or above 7?
Reply: label 0

Ask: Dear colleague, could you confirm whether COc1ccc(-c2cc(NC(=O)Nc3c(C)cc(C)cc3C)c(C(=O)N[C@@H](C(=O)O)C(C)C)s2)cc1 has pIC50 at or above 7?
Reply: label 0

Ask: Dear colleague, could you confirm whether Cc1cccc(Cl)c1NC(=O)Nc1cc2ccccc2cc1C(=O)N[C@@H](Cc1c[nH]c2ccccc12)C(=O)O [Example 65, trifluoroacetate] has pIC50 at or above 7?
Reply: label 0

Ask: Dear colleague, could you confirm whether C[C@](NC(=O)c1cc2ccccc2cc1NC(=O)Nc1c(Cl)cc(Cl)cc1Cl)(C(=O)O)C1CCCCC1 has pIC50 at or above 7?
Reply: label 0

Ask: Dear colleague, could you confirm whether Cc1cccc(C)c1NC(=O)Nc1cc2ccccc2cc1C(=O)N[C@@H](Cc1cnc[nH]1)C(=O)O [Example 50, trifluoroacetate] has pIC50 at or above 7?
Reply: label 0

Each recorded value in this set is attributed to patent US20070249670A1.
